Tested on: h-Tel quadruplex DNA sequence 5'-d[AGGG(TTAGGG)3]-3'
Test Protocol: SPR binding to quadruplex DNA
Design: species or system human
// reported Quadruplex DNA affinity K for each item listed
Attribute Measured: Quadruplex DNA affinity K

C[n+]1c2c3c(cccc3c3ccccc31)Sc1ccccc1-2 [Compound 10] :: 1,0 x10^6 M^−1
CN(C)CC#Cc1ccc2c3cccc4c3c([n+](C)c2c1)-c1ccccc1N4C [Compound 7] :: 29,3 x10^6 M^−1
CC(=O)NCC#Cc1ccc2c3cccc4c3c([n+](C)c2c1)-c1ccccc1N4C [Compound 8] :: 14,2 x10^6 M^−1
C[n+]1c2c3c(cccc3c3ccccc31)Oc1ccccc1-2 [Compound 9] :: 1,5 x10^6 M^−1
CN1c2ccccc2-c2c3c1cccc3c1ccc(NC(=O)C3CC3)cc1[n+]2C [Compound 3] :: 22,0 x10^6 M^−1
CN1c2ccccc2-c2c3c1cccc3c1ccc(NC(=O)CO)cc1[n+]2C [Compound 6] :: 14,7 x10^6 M^−1
